Kindly state inhibition at 10 µM for each of the entries shown.
# Target: mGluR5 (Homo sapiens)
# Sequence (P41594 21-1180 isoform P41594-2 limits assumed): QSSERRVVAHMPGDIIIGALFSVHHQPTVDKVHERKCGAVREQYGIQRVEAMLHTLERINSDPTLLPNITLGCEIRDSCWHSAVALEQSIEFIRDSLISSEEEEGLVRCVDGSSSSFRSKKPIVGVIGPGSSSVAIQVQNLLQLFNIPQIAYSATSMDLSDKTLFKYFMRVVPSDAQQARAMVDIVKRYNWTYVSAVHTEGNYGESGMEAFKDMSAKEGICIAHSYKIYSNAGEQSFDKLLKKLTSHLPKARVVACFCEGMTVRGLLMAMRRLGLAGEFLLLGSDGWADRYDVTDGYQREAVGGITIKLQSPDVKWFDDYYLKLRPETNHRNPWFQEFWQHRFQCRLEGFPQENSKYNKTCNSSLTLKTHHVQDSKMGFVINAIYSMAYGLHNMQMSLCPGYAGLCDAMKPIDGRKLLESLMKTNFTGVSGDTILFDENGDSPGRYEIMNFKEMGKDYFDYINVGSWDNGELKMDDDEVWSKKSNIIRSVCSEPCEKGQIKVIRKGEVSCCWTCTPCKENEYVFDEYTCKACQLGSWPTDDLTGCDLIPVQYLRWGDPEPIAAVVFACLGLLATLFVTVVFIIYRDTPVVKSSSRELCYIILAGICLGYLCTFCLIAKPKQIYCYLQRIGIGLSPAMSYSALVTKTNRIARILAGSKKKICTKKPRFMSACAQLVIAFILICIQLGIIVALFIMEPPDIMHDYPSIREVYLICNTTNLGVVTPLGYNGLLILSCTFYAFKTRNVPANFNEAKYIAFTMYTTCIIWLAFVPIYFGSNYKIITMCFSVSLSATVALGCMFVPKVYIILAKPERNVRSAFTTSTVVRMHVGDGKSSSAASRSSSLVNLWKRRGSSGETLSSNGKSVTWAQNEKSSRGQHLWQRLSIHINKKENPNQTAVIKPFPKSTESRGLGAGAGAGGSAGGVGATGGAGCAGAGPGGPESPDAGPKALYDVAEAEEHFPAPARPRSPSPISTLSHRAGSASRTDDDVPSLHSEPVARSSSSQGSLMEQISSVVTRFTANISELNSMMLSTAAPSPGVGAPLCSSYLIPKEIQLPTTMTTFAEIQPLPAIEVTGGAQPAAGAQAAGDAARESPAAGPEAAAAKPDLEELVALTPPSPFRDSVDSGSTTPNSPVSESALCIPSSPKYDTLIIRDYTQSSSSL
# Assay protocol: inhibition of the glutamate induced elevation of intracellular Ca2+ concentration
# Reported conditions: read-out: mGluR5 Activity inh. at 10 μM [%]
Numbers only, in %.

In the examples that follow, each entry is paired with its recorded inhibition at 10 µM.
The compound listed as CC1CCCN(C(=O)c2ccc(Nc3ccc(Cl)cc3)nn2)C1 (racemic) has a reported inhibition at 10 µM of 100

The compound listed as Cc1ccc(Nc2ncc(C(=O)N3CCCC3c3ccccn3)cc2Cl)cn1 (stereo not drawn) has a reported inhibition at 10 µM of 72

The compound listed as CCC1CCCCN1C(=O)c1cnc(Nc2ccc(C)nc2)c(Cl)c1 (stereo not drawn) has a reported inhibition at 10 µM of 98

The compound listed as CCC(CC)C1OCCCCN1C(=O)c1cnc(Nc2ccc(C)nc2)c(Cl)c1 (stereo not drawn) has a reported inhibition at 10 µM of 95

The compound listed as O=C(c1ccc(Nc2ccc(Cl)cc2)nc1)N1CCCC(CO)C1 (racemic) has a reported inhibition at 10 µM of 86

Please go through the list and note inhibition at 10 µM for each compound.
1. CC1CCCN(C(=O)c2cnc(Nc3ccc(Cl)nc3)c(Cl)c2)C1 (stereo not drawn)
2. CC[C@H]1CCCCN1C(=O)c1cnc(Nc2ccc(C)nc2)c(Cl)c1
3. Cc1cccc(C#C[C@]2(O)CCC[C@@H]3[C@H]2CCN3C(=O)c2ccc(Nc3ccc(Cl)cc3)nc2)c1 (relative stereo)
4. CCCC1CCC(C)CN1C(=O)c1cnc(Nc2ccc(C)nc2)c(Cl)c1 (stereo not drawn)

Reply text:
1. 98
2. 97
3. 86
4. 96

====

Kindly state inhibition at 10 µM for each of the entries shown.
# Target: mGluR5 (Homo sapiens)
# Assay protocol: inhibition of the glutamate induced elevation of intracellular Ca2+ concentration
# Reported conditions: read-out: mGluR5 Activity inh. at 10 μM [%]
Where a name gives a salt, the structure may show the parent alone.
One number for each entry, in %.

In the examples that follow, each entry is paired with its recorded inhibition at 10 µM.
The compound listed as CCOc1ccc(Nc2ncc(C(=O)N3CCCCC3)cc2Cl)cn1 [Compound 2.9] has a reported inhibition at 10 µM of 100

The compound listed as Cc1ccc(Nc2ncc(C(=O)N3CCCCC3CCCl)cc2Cl)cn1 (centres unmarked) [Compound 4.47] has a reported inhibition at 10 µM of 97

The compound listed as Cc1ccc(Nc2ncc(C(=O)N3CCCC(C)C3C)cc2Cl)cn1 (centres unmarked) [Compound 4.20] has a reported inhibition at 10 µM of 100

The compound listed as COc1cc(C(=O)N2CCCCC2)cnc1Nc1ccc(Cl)cc1 [Compound 6.3] has a reported inhibition at 10 µM of 95

Please go through the list and note inhibition at 10 µM for each compound.
1. CCCC1CCCCN1C(=O)c1cnc(Nc2ccc(C)nc2)c(Cl)c1 (centres unmarked) [Compound 4.34]
2. CCOc1cc(C(=O)N2CCCCC2)cnc1Nc1ccc(C)nc1 [Compound 6.7]

Reply text:
1. 98
2. 35

Please go through the list and note inhibition at 10 µM for each compound.
1. O=C(c1ccc(Nc2ccc(Cl)cc2)nc1)N1C2CCC1CC(O)C2 (centres unmarked) [Compound 4.11]
2. CC1CCN(C(=O)c2ccc(Nc3ccc(Cl)cc3)nc2)CC1 [Compound 4.4]
3. Cc1ccc(Nc2ncc(C(=O)N3CCCC3c3ccccc3)cc2Cl)cn1 (centres unmarked) [Compound 4.72]
4. Cc1ccc(Nc2ccc(C(=O)N3CCC[C@@H](C)C3)cn2)cn1 [Compound 4.13b]
5. COc1ccc(Nc2ccc(C(=O)N3CCCCC3C)cn2)cc1 (centres unmarked) [Compound 1.11, hydrochloride]
6. CCCC1CCCCCN1C(=O)c1cnc(Nc2ccc(C)nc2)c(Cl)c1 (centres unmarked) [Compound 4.76]
7. Cc1ccc(Nc2ncc(C(=O)N3CCCCC3)cc2C)cn1 [Compound 9.1]

Reply text:
[51, 98, 97, 96, 71, 92, 97]

Please go through the list and note inhibition at 10 µM for each compound.
1. O=C(c1ccc(Nc2ccc(OC(F)(F)F)cc2)nc1)N1CCCCC1 [Compound 1.8]
2. CCN(CC)C(=O)c1ccc(Nc2ccc(C)cc2)nc1 [Compound 1.2, hydrochloride]
3. COCCN(CCOC)C(=O)c1ccc(Nc2ccc(Cl)cc2)nc1 [Compound 1.4, hydrochloride]
4. Cc1ncc(Nc2ncc(C(=O)N3CCCCCC3)cc2Cl)cn1 [Compound 2.18]
5. CCCCC1CCCCN1C(=O)c1cnc(Nc2ccc(C)nc2)c(Cl)c1 (centres unmarked) [Compound 4.38]
6. Cc1ccc(Nc2ncc(C(=O)N3CCCC[C@H]3C)cc2Cl)cn1 [Compound 4.24]
7. Cc1ccc(Oc2ncc(C(=O)N3CCCCC3)cc2Cl)cn1 [Compound 3.2]

Reply text:
54
93
37
100
98
92
97

Please go through the list and note inhibition at 10 µM for each compound.
1. CCCCC1OCCCN1C(=O)c1cnc(Nc2ccc(C)nc2)c(Cl)c1 (centres unmarked) [Compound 4.70]
2. Cc1ccc(Nc2ncc(C(=O)N3CCSCC3)cc2Cl)cn1 [Compound 2.15]
3. C=CC1CCCCN1C(=O)c1cnc(Nc2ccc(C)nc2)c(Cl)c1 (centres unmarked) [Compound 4.55]
4. O=C(c1ccc(Nc2ccc(Cl)cc2)nn1)N1CCCCC1 [Compound 8.1]
5. CC[C@@H]1CCCCN1C(=O)c1cnc(Nc2ccc(C)nc2)c(Cl)c1 [Compound 4.18]
6. Cc1ccc(Nc2ccc(C(=O)N3CCCCCC3)cn2)cn1 [Compound 4.15]
7. Cc1ncc(Nc2ncc(C(=O)N3CCCCC3)cc2Cl)cn1 [Compound 2.17]
8. Cc1ccc(Nc2ncc(C(=O)N3CCC[C@@H](C)[C@H]3C)cc2Cl)cn1 [Compound 4.22]

Reply text:
96
100
96
91
97
98
97
98
